- Test system: Leishmania donovani axenic amastigote parasites
- ASSAY SUMMARY: Leishmania donovani axenic amastigote proliferation assay
- Assay type: cell-based
- SETTINGS: axenic amastigotes in vitro, read-out: L. donovani amastigotes EC50
pEC50: −log10 of the molar value.
pEC50 for assorted compounds

| COMPOUND | RESULT MODIFIER | pEC50 |
| --- | --- | --- |
| Cc1cnc2nc(-c3cc(NC(=O)N4CC[C@@H](F)C4)ccc3Cl)[nH]c2c1 | = | 5.69 |
| Cc1cnc2nc(-c3cc(NC(=O)c4ccccn4)ccc3Cl)[nH]c2c1 | = | 5.15 |
| CNc1ccc(-c2cnc3nc(-c4cc(NC(=O)c5cnccn5)ccc4Cl)[nH]c3c2)cc1 | = | 6.60 |
| Cc1cnc2nc(-c3cc(NC(=O)Cn4cncn4)ccc3Cl)[nH]c2c1 | < | 4.60 |
| Cc1cnc2nc(-c3cc(NC(=O)C4Cc5ccccc5O4)ccc3Cl)[nH]c2c1 (centres unmarked) | = | 4.69 |
| Cc1cnc2nc(-c3cc(Nc4ccc(N5CCOCC5)cn4)ccc3Cl)[nH]c2c1 | < | 4.60 |
| Cc1cnc2nc(-c3cc(NC(=O)c4ccncc4)ccc3Cl)[nH]c2c1 | = | 5.18 |
| O=C(Nc1ccc(Cl)c(-c2nc3ncc(-c4ccc(OCCN5CCCCC5)cc4)cc3[nH]2)c1)c1ccco1 | = | 4.80 |

* * *

- Test system: Trypanosoma cruzi amastigotes (Tulahuen strain) cultured in 3T3 fibroblast cells
- ASSAY SUMMARY: Assay for proliferation of kinetoplastid parasite Trypanosoma cruzi
- Format: cell-based
- SETTINGS: 144 h, Tulahuen amastigotes in 3T3 fibroblast cells, 6 day incubation, read-out: T cruzi EC50
Lab note: cut-off is 2000 nM. Strictly less in EC50 is satisfied. Exactly 2000 nM or more is not satisfied.

| MOLECULE | LABEL CLASS |
| --- | --- |
| Cc1cnc2nc(-c3cc(NC(=O)c4cccnn4)ccc3Cl)[nH]c2c1 | not satisfied |
| Cc1cnc2nc(-c3cc(NC(=O)c4ccc(C)[nH]4)ccc3Cl)[nH]c2c1 | not satisfied |
| CN(C(=O)OC(C)(C)C)c1ccc(-c2cnc3nc(-c4cc(NC(=O)N5CCCC5)ccc4Cl)[nH]c3c2)cc1 | satisfied |
| Cc1cnc2nc(-c3cc(NC(=O)c4cccc(Cl)c4)ccc3Cl)[nH]c2c1 | satisfied |
| NC(=O)c1ccc(-c2cnc3nc(-c4cc(NC(=O)c5ccco5)ccc4Cl)[nH]c3c2)cc1 | not satisfied |
| COc1ccc(-c2cnc3nc(-c4cc(NC(=O)c5ccco5)ccc4Cl)[nH]c3c2)cn1 | satisfied |
| COCCOC(=O)Nc1ccc(Cl)c(-c2nc3ncc(-c4ccc5c(c4)CC(=O)N5)cc3[nH]2)c1 | not satisfied |
| Cc1cnc2nc(-c3cc(NC(=O)c4cnc(Cl)cn4)ccc3Cl)[nH]c2c1 | not satisfied |
| O=C(Nc1ccc(Cl)c(-c2nc3ncc(-c4cccnc4)cc3[nH]2)c1)c1ccco1 | satisfied |
| CS(=O)(=O)c1ccc(-c2cnc3nc(-c4cc(NC(=O)N5CCCC5)ccc4Cl)[nH]c3c2)cc1 | not satisfied |

* * *

- Tested on: L. donovani HU3 strain in mouse peritoneal macrophages
- ASSAY SUMMARY: Assay for proliferation of Leishmania parasites in mouse peritoneal macrophages
- Type: cell-based, Leishmania donovani
- SETTINGS: Leishmania donovani, Peritoneal macrophage, read-out: L. donavani Macrophage EC50
- Text: Assay for Proliferation of Leishmania Parasites The activity of a compound according to the present invention for inhibition of parasitemai can be assessed by the parasite proliferation assay. The assay measures the increase in the parasite number in the assayed plate well using a DNA intercalating dye, SYBR Green I® dye (INVITROGEN) to stain Leishmania cell nuclei. It is understood that the assays illustrate the invention without in any way limiting the scope of the invention. […]
OBSERVABLE: log10 EC50 (log10 of the value in nM)

| MOLECULE | log10 EC50 |
| --- | --- |
| CC(C)OC(=O)Nc1ccc(-c2cnc3nc(-c4cc(NC(=O)OC(C)C)ccc4Cl)[nH]c3c2)cc1 | 2.47 |
| CC(C)OC(=O)Nc1ccc(Cl)c(-c2nc3ncc(-c4ccccc4N)cc3[nH]2)c1 | 3.00 |
| Nc1ncc(-c2cnc3nc(-c4cc(NC(=O)c5ccco5)ccc4Cl)[nH]c3c2)cn1 | 3.20 |
| O=C(Nc1ccc(C(F)(F)F)cc1)Nc1ccc(F)c(-c2nc3ncc(-c4ccc(CCN5CCOCC5)cc4)cc3o2)c1 | 4.06 |
| Cc1cnc2nc(-c3cc(NC(=O)C(C)(C)c4ccc(Cl)cc4)ccc3Cl)[nH]c2c1 | 4.23 |
| CC(=O)Nc1ccccc1-c1cnc2nc(-c3cc(NC(=O)c4ccco4)ccc3Cl)[nH]c2c1 | 3.24 |
| Cc1cnc2nc(-c3cc(NC(=O)c4ccc(S(C)(=O)=O)cc4Cl)ccc3Cl)[nH]c2c1 | 4.38 |

* * *

- Test system: Leishmania donovani axenic amastigote parasites
- ASSAY SUMMARY: Leishmania donovani axenic amastigote proliferation assay
- Type: cell-based
- SETTINGS: axenic amastigotes in vitro, read-out: L. donovani amastigotes EC50
EC50 for assorted molecules

| MOLECULE | RESULT MODIFIER | EC50 / µM |
| --- | --- | --- |
| Cc1cnc2nc(-c3cc(NC(=O)C(c4ccccc4)C(C)C)ccc3Cl)[nH]c2c1 (centres unmarked) [Compound 160] | > | 24.6 |
| Cc1cnc2nc(-c3cc(NC(=O)c4cncnc4)ccc3Cl)[nH]c2c1 [Compound 187] | = | 6.9 |
| Cc1cnc2nc(-c3cc(NC(=O)Cc4ccc(N(C)C)cc4)ccc3Cl)[nH]c2c1 [Compound 82] | > | 25 |
| O=C(Nc1ccc(F)c(-c2nc3ncc(Br)cc3o2)c1)c1cocn1 [Compound 410] | > | 25 |
| N#Cc1ccc(-c2cnc3nc(-c4cc(NC(=O)c5ccco5)ccc4Cl)[nH]c3c2)cc1 [Compound 20] | = | 0.239 |
| Cc1cnc2nc(-c3cc(NC(=O)c4ccc(C)o4)ccc3Cl)[nH]c2c1 [Compound 126] | = | 1.6 |
| O=C(Nc1ccc(Cl)c(-c2nc3ncc(Br)cc3[nH]2)c1)c1cnccn1 [Compound 375] | = | 7.5 |
| CNc1ccc(F)c(-c2nc3ncc(-c4ccc(OCCN5CCOCC5)cc4)cc3o2)c1 [Example 421] | > | 25 |
| CC(=O)Nc1ccccc1-c1cnc2nc(-c3cc(NC(=O)c4ccco4)ccc3Cl)[nH]c2c1 [Compound 8] | = | 0.75 |
| Cc1cnc2nc(-c3cc(NC(=O)C(O)c4ccc(C(F)(F)F)cc4)ccc3Cl)[nH]c2c1 (centres unmarked) [Compound 182] | > | 25 |
| CC(C)(C)OC(=O)N1CC=C(c2cnc3nc(-c4cc(NC(=O)c5ccco5)ccc4Cl)[nH]c3c2)CC1 [Compound 63] | = | 0.56 |
| Cc1cnc2nc(-c3cc(NC(=O)Cc4ccc(C(F)(F)F)cc4)ccc3Cl)[nH]c2c1 [Compound 96] | > | 25 |
| CC(C)OC(=O)Nc1ccc(Cl)c(-c2nc3ncc(-c4ccccc4NC(=O)OC(C)C)cc3n2C(=O)OC(C)C)c1 [Compound 336] | = | 1.89 |
| O=C(Nc1ccc(Cl)c(-c2nc3ncc(C(F)(F)F)cc3[nH]2)c1)c1ccccc1Cl [Compound 278] | > | 25 |
| O=C(Nc1ccc(C(F)(F)F)cc1)Nc1ccc(F)c(-c2nc3ncc(-c4ccc(N5CCOCC5)cc4)cc3o2)c1 [Compound 392] | > | 25 |
| COC(=O)Nc1ccc(Cl)c(-c2nc3ncc(C#N)cc3[nH]2)c1 [Compound 290] | = | 15.6 |
| Cc1cnc2nc(-c3cc(NC(=O)OC4CCCC4)ccc3Cl)[nH]c2c1 [Compound 218] | > | 25 |
| CC(C)OC(=O)Nc1ccc(-c2cnc3nc(-c4cc(NC(=O)OC(C)C)ccc4Cl)[nH]c3c2)cc1 [Compound 337] | = | 0.119 |
| Cc1cnc2nc(-c3cc(NC(=O)c4ccco4)ccc3Cl)oc2c1 [Example 418] | = | 1.51 |
| Cc1cnc2nc(-c3cc(NC(=O)COc4ccccc4)ccc3Cl)[nH]c2c1 [Compound 120] | > | 25 |
| Cc1cnc2nc(-c3cc(NC(=O)c4cncc(C#N)c4)ccc3Cl)[nH]c2c1 [Compound 101] | = | 13.5 |
| CN(C)c1ccc(-c2cnc3nc(-c4cc(NC(=O)Nc5ccc(C(F)(F)F)cc5)ccc4F)oc3c2)cn1 [Compound 403] | = | 17.4 |
| CC(C)OC(=O)Nc1ccccc1-c1cnc2nc(-c3cc(NC(=O)c4ccco4)ccc3Cl)[nH]c2c1 [Compound 37] | = | 0.46 |
| CN(C)Cc1ccc(C(=O)Nc2ccc(Cl)c(-c3nc4ncc(Br)cc4[nH]3)c2)o1 [Example 372] | > | 25 |
| COC(=O)Nc1ccc(-c2cnc3nc(-c4cc(NC(=O)OC(C)C)ccc4Cl)[nH]c3c2)cc1 [Compound 341] | = | 0.08 |
| Cc1cc(COc2ccc(-c3cnc4nc(-c5cc(NC(=O)c6ccco6)ccc5Cl)[nH]c4c3)cc2)no1 [Compound 44] | = | 0.283 |
| Cc1cnc2nc(-c3cc(NC(=O)c4cnc(Cl)cn4)ccc3Cl)[nH]c2c1 [Compound 135] | > | 25 |
| Cc1cnc2nc(-c3cc(NC(=O)c4ccnc(C)c4C)ccc3Cl)[nH]c2c1 [Compound 189] | > | 25 |
| CC(C)C(=O)Nc1ccc(-c2cnc3nc(-c4cc(NC(=O)c5ccco5)ccc4Cl)[nH]c3c2)cc1 [Compound 53] | = | 0.112 |
| CC(C)N1CCN(c2ccc(-c3cnc4nc(-c5cc(NC(=O)c6ccco6)ccc5Cl)[nH]c4c3)cc2)CC1 [Compound 62] | = | 19.2 |
| Cc1ccnc2nc(-c3cc(NC(=O)c4ccco4)ccc3Cl)[nH]c12 [Compound 3] | > | 25 |
| Cc1cnc2nc(-c3cc(NC(=O)c4occc4C)ccc3Cl)[nH]c2c1 [Compound 130] | = | 2.01 |
